target.desc: phosphodiesterase fraction III (Canis familiaris)
assay.comment: Inhibition of cardiac phosphodiesterase-3 isolated from canine heart.
Flag rule - IC50 less than 20 µM flags YES; the remaining entries get NO.

Q: IC50 strictly < 20 µM for this compound? CC(=O)N1CCOc2ccc(C3=NNC(=O)CC3)cc21
Ans: NO

Q: Does CN1C(=O)C(C)(C)Oc2ccc(C3=NNC(=O)CC3)cc21 have IC50 strictly under 20 µM?
Ans: NO

Q: Input CN1C(=O)COc2ccc(C3=NNC(=O)CC3)cc21 ; condition: IC50 strictly below 20 µM. Does it hold?
Ans: YES

Q: Given CCCCCN1N=C(c2ccc3c(c2)N(S(C)(=O)=O)CCO3)CCC1=O , is recorded IC50 strictly lower than 20 µM?
Ans: NO

Q: In the record for CC1(C)Oc2ccc(C3=NNC(=O)CC3)cc2NC1=O , is IC50 less than 20 µM?
Ans: NO

Q: Would you kindly verify if IC50 of Cc1cc(C2=NNC(=O)CC2C)c2c(c1)N(C)C(=O)CO2 (stereo unspecified) is strictly less than 20 µM?
Ans: YES

Q: Determine if CC1CC(=O)NN=C1c1ccc2c(c1)OC(C)(C)C(=O)N2 (stereo unspecified) shows IC50 strictly lower than 20 µM.
Ans: YES

Q: I'd appreciate it if you could check whether CS(=O)(=O)N1CCOc2ccc(C3=NNC(=O)CC3)cc21 has IC50 smaller than 20 µM.
Ans: YES

Q: Field: below-cutoff. Rule: recorded IC50 strictly less than 20 µM. Subject: CN1N=C(c2ccc3c(c2)N(S(C)(=O)=O)CCO3)CCC1=O
Ans: NO

Q: I'd appreciate it if you could check whether CC1CC(=O)NN=C1c1ccc2c(c1)N(C1CCCC1)C(=O)C(C)O2 (stereo unspecified) has IC50 smaller than 20 µM.
Ans: YES

Q: # check: IC50 < 20 µM for CC1CC(=O)NN=C1c1ccc2c(c1)N(C)C(=O)C(C)O2 (stereo unspecified)
Ans: YES

---

Provide the recorded IC50 for the entries that follow.
target.desc: phosphodiesterase fraction III (Canis familiaris)
assay.comment: Inhibition of cardiac phosphodiesterase-3 isolated from canine heart.
Provide the reading as a plain figure in µM.

Lab note: molecule CC1CC(=O)NN=C1c1ccc2c(c1)OC(C)(C)C(=O)N2C (configuration not stated) tested on phosphodiesterase fraction III (Canis familiaris); recorded IC50 was 6

Simply: CC1CC(=O)NN=C1c1ccc2c(c1)N(S(C)(=O)=O)CCO2 (configuration not stated) , phosphodiesterase fraction III (Canis familiaris), IC50 = 4

Entry CC1CC(=O)NN=C1c1ccc2c(c1)N(C(C)C)C(=O)C(C)O2 (configuration not stated) ; assay system phosphodiesterase fraction III (Canis familiaris); IC50 recorded at 5

Field IC50 (system: phosphodiesterase fraction III (Canis familiaris)) for entry CC1CC(=O)NN=C1c1ccc2c(c1)NCCO2 (configuration not stated) = 6

# CC1CC(=O)NN=C1c1ccc2c(c1)NC(=O)C(C)O2 (configuration not stated) with phosphodiesterase fraction III (Canis familiaris): IC50 is 5

The molecule Cc1cc2c(c(C3=NNC(=O)CC3)c1)OCC(=O)N2 , when measured on phosphodiesterase fraction III (Canis familiaris), yielded IC50 of 31

For the molecule CS(=O)(=O)N1CCOc2ccc(C3=NN(c4ccccc4)C(=O)CC3)cc21 , the measured IC50 on phosphodiesterase fraction III (Canis familiaris) was 200

Param item: CC(=O)N1CCOc2ccc(C3=NNC(=O)CC3C)cc21 (configuration not stated) ; param system: phosphodiesterase fraction III (Canis familiaris); output IC50: 30

Param item: CC1CC(=O)NN=C1c1ccc2c(c1)OCC(=O)N2 (configuration not stated) ; param system: phosphodiesterase fraction III (Canis familiaris); output IC50: 0.3

So the reported IC50 for Cc1cc(C2=NNC(=O)CC2)c2c(c1)N(C)C(=O)CO2 , on phosphodiesterase fraction III (Canis familiaris), turned out to be 26

Bench note, phosphodiesterase fraction III (Canis familiaris): entry O=C1CCC(c2ccc3c(c2)NC(=O)CO3)=NN1 , its IC50 = 630

// returns IC50 for Cc1cc2c(cc1C1=NNC(=O)CC1C)NC(=O)CO2 (configuration not stated) with phosphodiesterase fraction III (Canis familiaris); value = 20

From: ChEMBL document CHEMBL1124957
